System: Streptococcus pyogenes
protocol-summary: MIC by NCCLS reference broth microdilution, 450 respiratory tract pathogens
Type: cell-based
measurement-context: Streptococcus pyogenes, erythromycin resistant M phenotype (n = 20)
measured-metric: MIC90 (µg/mL)
Could you give me the number in µg/mL? Just the number is fine.

Consider the reported MIC90 for these compounds:
O=C(O)c1cn(C2CC2)c2cc(N3CCNCC3)c(F)cc2c1=O [Ciprofloxacin, ciprofloxacin]	0.5
N[C@@H]1[C@H]2CN(c3nc4c(cc3F)c(=O)c(C(=O)O)cn4-c3ccc(F)cc3F)C[C@@H]12 [Trovafloxacin, trovafloxacin]	0.12

Which measured MIC90 value corresponds to CO/N=C(\C(=O)N[C@@H]1C(=O)N2C(C(=O)O)=C(COC(N)=O)CS[C@H]12)c1ccco1 [Cefuroxime, cefuroxime] ?
0.015

Which measured MIC90 value corresponds to C[C@@H]1CN(c2c(F)c(N)c3c(=O)c(C(=O)O)cn(C4CC4)c3c2F)C[C@H](C)N1 [Sparfloxacin, sparfloxacin] ?
0.5

Which measured MIC90 value corresponds to NC1CCN(c2c(F)cc3c(=O)c(C(=O)O)cn(C4CC4)c3c2Cl)C1 (stereo not drawn) [Clinafloxacin, clinafloxacin] ?
0.06

Which measured MIC90 value corresponds to CO/N=C1\CN(c2nc3c(cc2F)c(=O)c(C(=O)O)cn3C2CC2)CC1CN (racemic) [Gemifloxacin] ?
0.015
